Values compiled from the supplement of paper PMC12764529.

# assaySummary: folding stability dG unfold (combined trypsin and chymotrypsin); higher = more stable

[
  {
    "macromoleculeSequence": "SAGGSPEVKIEIEVTERVTVFDENGKPVEEVLVVKAKITFPDGTTATITAFFYEGKWFITSIELEPSAGGSA [r2_158_TrROS_Hall]",
    "relation": "=",
    "folding stability dG unfold / kcal/mol": 4.62
  },
  {
    "macromoleculeSequence": "SAGKKKKIKKIEIEIEKNKDGKEIKVKVKVDGKEYEFTFPKNMSLEELLKKLKEELEKEGLKIEEVEIKSAG [r5_305_TrROS_Hall]",
    "relation": "=",
    "folding stability dG unfold / kcal/mol": 2.73
  },
  {
    "macromoleculeSequence": "SAGGMDPAEAREIAKEIMKKFEENGRPYYAKITIRPDPKIQDIDIMPPGEPLEPRADPGQRTIMFRFPSAGG [r13_693_TrROS]",
    "relation": "<",
    "folding stability dG unfold / kcal/mol": -1
  },
  {
    "macromoleculeSequence": "SAGSYKLVVKAKAPKGPARIRVFVRLPGGEEKPVAEAEVGSGEVADIEITFPSGKPIDPKNIRVEIVPPSAG [r5_287_TrMRF]",
    "relation": "=",
    "folding stability dG unfold / kcal/mol": 1.8
  }
]

---

# assaySummary: folding stability dG unfold (combined trypsin and chymotrypsin); higher = more stable
We use 3 kcal/mol as the dividing line for folding stability dG unfold: on or above the line is satisfied, below is not satisfied.

[
  {
    "macromoleculeSequence": "SAGGSAMPKPKVEILKVEKTEDGTVKVPVKVEVTFEDGSKETVPATVTFEVEEGKPLGPEALKEAISAGGSA [r15_836_TrMRF]",
    "label": "not satisfied"
  },
  {
    "macromoleculeSequence": "SAGGSMIEEAIEEALKKGLEKVEIEVEVEVNGKIYRVKMEIVKVEEGKVEIKIEVEEIDPETGKLISAGGSA [r2_420_TrROS_Hall]",
    "label": "satisfied"
  },
  {
    "macromoleculeSequence": "SARLFTIRIQGPPEQLKDALQEEFDMEVNIEPEPNGSTTITFELPPNNYDRFEEALEQLPGFPIEIEPVSAG [r14_521_TrROS]",
    "label": "not satisfied"
  },
  {
    "macromoleculeSequence": "SAGGGVSYSFSSSGSGSTVTIYIPGSGKTLKRKVNPNDTITDIPSSAKPYKVVKEVNDEKPVEEELGSAGGS [r8_487_JUSTAS]",
    "label": "not satisfied"
  },
  {
    "macromoleculeSequence": "SAGGSAGGSSSVTPVPETTLVTLTPPDGSPPVLGTVFPATGTMLLFYPDSVLLLPLGPGTTLFSAGGSAGGS [r12_536_JUSTAS]",
    "label": "not satisfied"
  },
  {
    "macromoleculeSequence": "SAGGAEIKITSIEYNPETKTITAKVEITVDGKKFTFTITIKLKAAPAPPTVTVTDKDIPGKTVTLTKTSAGG [r13_615_TrROS_Hall]",
    "label": "not satisfied"
  },
  {
    "macromoleculeSequence": "SAGGSAGGSAKITIELDGITEVEFDEETGELYLRIEVDGKLYEIRITEDGTIEIREVPLEDSAGGSAGGSAG [r3_62_TrROS_Hall]",
    "label": "satisfied"
  }
]

---

# assaySummary: folding stability dG unfold (combined trypsin and chymotrypsin); higher = more stable
just bin them by folding stability dG unfold: class 0 (below 0.3 kcal/mol), class 1 (0.3 kcal/mol to below 1 kcal/mol), class 2 (1 kcal/mol or more)

[
  {
    "macromoleculeSequence": "SAGDDLKIKKVEIQINPEHGYISVTFRIDGYEVQIMYDVDPKNGPITMDIYYPGKPIGEFTIPLNDIKISAG [r5_415_TrROS]",
    "label": "class 2"
  },
  {
    "macromoleculeSequence": "SAGGSAGGSAGGGKKILGVQPELFYDPENGTLYVKTVAVGEDENGAPGDADISVEPFPLLSAGGSAGGSAGG [r7_892_TrMRF]",
    "label": "class 0"
  },
  {
    "macromoleculeSequence": "SAGMKVTVSPASLVFDPATGRLLRPVLVTVEDTGGGGKTPAEEQAAAAEATRRALAAELAPRTGSALDLSAG [r5_333_JUSTAS]",
    "label": "class 1"
  },
  {
    "macromoleculeSequence": "SMPISAEELAELFPGVVEIKPEPDSTVITAKDPNGTNPVFTLSPAGTVTVTTYTPGSGTTTTTTIPTALLSA [r9_427_JUSTAS]",
    "label": "class 0"
  },
  {
    "macromoleculeSequence": "SAGGSAGGSAGGKPITIERNEDNGPIEIRFPGNGRRIHFPFPPGDDITIDAEDGNIEIKSAGGSAGGSAGGS [r10_979_TrROS]",
    "label": "class 1"
  },
  {
    "macromoleculeSequence": "SAGGLTITVTPSVSENEVVVPGTGKPRFPEPRETYTVTVTPAPDVSLEEVAAEIREKFPGRGYTLTPSAGGS [r8_30_JUSTAS]",
    "label": "class 0"
  },
  {
    "macromoleculeSequence": "SAGASPGVRLTERSEEVIEVEPGEKEKLKEEIKKSEKKYPGGLTEKVEYEVDPNSNKVTITITTTTGLSAGG [r19_45_JUSTAS]",
    "label": "class 1"
  },
  {
    "macromoleculeSequence": "SAGQIRIEIEPNPNGKPKIRITMHNPDGPPREREIPIDPGETVSDIADEFFENGMPIRPGSTIEDLIESAGG [r19_263_TrROS]",
    "label": "class 0"
  },
  {
    "macromoleculeSequence": "SAVPLSEEELEALLEEKAKEKAEEILKENPELPPGAVIKIKVEYEQEVVLEDKVEPVKYEREVEYKVPLSAG [r14_486_JUSTAS]",
    "label": "class 0"
  },
  {
    "macromoleculeSequence": "SAGGSAGGKIKVEYNPENNMYRVTIKLPGGKIKIYIPPGQTEEQGEKNVKHMAKELLKKNGIKISAGGSAGG [r6_679_TrROS]",
    "label": "class 2"
  },
  {
    "macromoleculeSequence": "SAGGSAGGSSVEVTEDPSTGKLTVTVPPDLTSVTIKEKDKTITIPLPPGASITLPSGTVTVALSAGGSAGGS [r20_26_JUSTAS]",
    "label": "class 1"
  },
  {
    "macromoleculeSequence": "SAGGSAGGSAGMKEGEIVEVTVPIPENGEEIKVKVVAPPSLTEEEARALAEEKAKEIYEKSAGGSAGGSAGG [r11_355_JUSTAS]",
    "label": "class 1"
  },
  {
    "macromoleculeSequence": "SAGMKKTITIKIEVPEKPIRIIVEKNGKKEEITIKPGETVTIEIELEPGETLRIRIVNEDGEEFEFEIKSAG [r5_187_TrROS_Hall]",
    "label": "class 2"
  },
  {
    "macromoleculeSequence": "SAGKYIMHPIKAGAEIKITIPPEGYRIKIGMYYPNGGKMEEHEVPIKPGKTLEFKIPDPNFFVMIEPEPSAG [r5_797_TrROS]",
    "label": "class 2"
  }
]
